From: paper PMC3518039

Target Under Test: Mycobacterium tuberculosis Rv0183 (monoglyceride lipase) (Mycobacterium tuberculosis, UniProt O07427)
Sequence (O07427 whole entry, looked up): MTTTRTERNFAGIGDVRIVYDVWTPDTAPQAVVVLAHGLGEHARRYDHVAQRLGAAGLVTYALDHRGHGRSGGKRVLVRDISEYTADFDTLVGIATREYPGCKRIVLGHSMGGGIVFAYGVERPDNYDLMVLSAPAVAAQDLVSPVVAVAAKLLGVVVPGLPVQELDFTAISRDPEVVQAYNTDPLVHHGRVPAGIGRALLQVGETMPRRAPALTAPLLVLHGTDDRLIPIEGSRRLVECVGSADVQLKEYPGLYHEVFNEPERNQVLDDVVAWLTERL
Assay type: biochemical
Readout Name: DI (Diastereoselectivity Index between trans-(α) and cis-(β) isomers), Rv0183

Answer with reported DI (Diastereoselectivity Index between trans-(α) and cis-(β) isomers), Rv0183 of CCCCCCCCCCCCCCCCCCC1CCP(=O)(OC)OC(C)=C1C(=O)OC (racemic) [10(β)] > 93.0%

Answer with reported DI (Diastereoselectivity Index between trans-(α) and cis-(β) isomers), Rv0183 of CCCCCCCCCCCCCCCCC1CCP(=O)(OC)OC(C)=C1C(=O)OC (racemic) [9(α)] > 97.0%

Answer with reported DI (Diastereoselectivity Index between trans-(α) and cis-(β) isomers), Rv0183 of CCCCCCCCCCCCCCCCCCC1CCP(=O)(OC)OC(C)=C1C(=O)OC (racemic) [10(α)] > 93.0%

Answer with reported DI (Diastereoselectivity Index between trans-(α) and cis-(β) isomers), Rv0183 of CCCCCCCCCCCCCCCCC1CCP(=O)(OC)OC(C)=C1C(=O)OC (racemic) [9(β)] > 97.0%
